assay: physchem
readoutName: solubility

stdin: # get_value(readout='solubility', item= "CC(C)/N=c1\cc2n(-c3ccc(Cl)cc3)c3ccccc3nc-2cc1Nc1ccc(Cl)cc1" )
stdout: 0.29 µg/mL

====

Entries and their measured pEC50 follow.
test system: pVSV (pseudovirus expressing a vesicular stomatitis virus envelope glycoprotein); assay: microbe, parasite or virus in culture; type: cell-based; settings: read-out: pVSV EC50
pEC50: −log10 of the molar value. Where a name gives a salt, the structure may show the parent alone.

| compound | testValue |
| --- | --- |
| CC(CN1c2ccccc2S(=O)(=O)c2ccccc21)N(C)C.Cl (stereo not shown) [Dioxopromethazine hydrochloride] | < 3.70 |
| CCOC(=O)C1=C(COCCN)NC(C)=C(C(=O)OC)C1c1ccccc1Cl (stereo not shown) [Amlodipine maleate] | 4.59 |

stdin: Request: pEC50, test system pVSV (pseudovirus expressing a vesicular stomatitis virus envelope glycoprotein), entry CCc1c2c(nc3ccc(OC(=O)N4CCC(N5CCCCC5)CC4)cc13)-c1cc3c(c(=O)n1C2)COC(=O)[C@]3(O)CC.Cl [Irinotecan hydrochloride]
stdout: < 3.70

stdin: Request: pEC50, test system pVSV (pseudovirus expressing a vesicular stomatitis virus envelope glycoprotein), entry N.N.[Cl][Pt][Cl] [Cisplatin]
stdout: < 3.70

====

assay: in vitro; conditions: hamster
readoutName: CC50

stdin: # get_value(readout='CC50', item= CC(C)/N=c1\cc2n(-c3ccc(Cl)cc3)c3ccccc3nc-2cc1Nc1ccc(Cl)cc1 [Clofazimine] )
stdout: > 2200 µM

====

Entries and their measured CC50 follow.
experiment: in vitro; conditions: human
Structures can show the parent of a compound that is named as a salt.

Solved cases (2 shown):
| compound | testValue |
| --- | --- |
| CCCCNc1ccc(C(=O)OCCN(C)C)cc1 [Tetracaine hydrochloride] | > 200 µM |
| CN1CCC(=C2c3ccccc3CC(=O)c3sccc32)CC1 [Ketotifen fumarate] | > 200 µM |

As a next step, examine the compound that follows.
stdin: # get_value(readout='CC50', item= CC(C)/N=c1\cc2n(-c3ccc(Cl)cc3)c3ccccc3nc-2cc1Nc1ccc(Cl)cc1 [Clofazimine] )
stdout: > 200 µM
